// protein stability index lookup, one value per entry
B1: ZNF232 (parent)
chain: GKAYGWCSELIRHRRVHARKEPSH

Variants of: B1
Experiment: protein stability index of a GFP-peptide fusion (GPS, HEK-293T) (PSI 1-6); higher = more stable;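 note: lentivirally expressed fusions sorted by FACS into six bins by GFP to DsRed ratio, PSI derived from sequencing read proportions per bin multiplied by bin number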
Conditions: c terminus: a fixed tail appended
// response body must contain only the number

Mutation notation	Readout kind	Value measured
G1Y	protein stability index	2.37
S23D	protein stability index	3.66
A18K	protein stability index	3.19
I11N	protein stability index	3.02
R15D	protein stability index	2.61

Per the record, A3W has protein stability index of 2.48
